FYI, the data here is from PubChem BioAssay AID2060329.

System: MCF7 multi-cell spheroids with HUVEC/MSC, viability
Assay: Anticancer human tumor MCF7 cell line growth inhibition [IpAb];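 also: spheroids exposed to agents for seven days before readout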
Conditions: second compound 3.16 µM; first compound 0.0316 µM; stronger effect = lower value
Experimental: Combinatorial screen of targeted agents with ipatasertib and abemaciclib in multi-cell type tumor spheroids […] Compounds. […] If the clinical Cmax for an agent had not been determined, the highest concentration tested was 10 microM. NCI60 Cell Culture. […] The optimal seeding densities for each of the cell lines at each time point assessed were determined prior to performing the concentration response studies. […]
ATTRIBUTE_MEASURED: viability, T/C (%)
One number for each entry, in %.

Worked cases, answers included:
• CC1(C)CCC(CN2CCN(c3ccc(C(=O)NS(=O)(=O)c4ccc(NCC5CCOCC5)c([N+](=O)[O-])c4)c(Oc4cnc5[nH]ccc5c4)c3)CC2)=C(c2ccc(Cl)cc2)C1 + CC(C)NCC(C(=O)N1CCN(c2ncnc3c2C(C)CC3O)CC1)c1ccc(Cl)cc1 = 47.9
• C=CCn1c(=O)c2cnc(Nc3ccc(N4CCN(C)CC4)cc3)nc2n1-c1cccc(C(C)(C)O)n1 + CC(C)NCC(C(=O)N1CCN(c2ncnc3c2C(C)CC3O)CC1)c1ccc(Cl)cc1 = 49.6

Now look at this one.
Which viability, T/C reading was recorded for the compound Cn1nccc1Nc1nccc(-c2ccn(C(CO)c3ccc(Cl)c(F)c3)c(=O)c2)n1 (stereo not drawn) + CC(C)NCC(C(=O)N1CCN(c2ncnc3c2C(C)CC3O)CC1)c1ccc(Cl)cc1 ? 51.9

* * *

test system: MCF7 multi-cell spheroids with HUVEC/MSC, viability; assay: Anticancer human tumor MCF7 cell line growth inhibition [IpAb]; details: second compound 1 µM; first compound 0.00316 µM; stronger effect = lower value;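 also: spheroids exposed to agents for seven days before readout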
Criterion: viability, T/C strictly under 60%. Met: 1 (yes). Not met: 0 (no).

* Cn1ncnc1[C@H]1c2n[nH]c(=O)c3cc(F)cc(c23)N[C@@H]1c1ccc(F)cc1 + CCN1CCN(Cc2ccc(Nc3ncc(F)c(-c4cc(F)c5nc(C)n(C(C)C)c5c4)n3)nc2)CC1 | 0 (no)
* CC(C)n1nc(-c2ccc3oc(N)nc3c2)c2c(N)ncnc21 + CCN1CCN(Cc2ccc(Nc3ncc(F)c(-c4cc(F)c5nc(C)n(C(C)C)c5c4)n3)nc2)CC1 | 0 (no)
* COc1c(OCCCN2CCOCC2)ccc2c3n(c(=NC(=O)c4cnc(N)nc4)nc12)CCN3 + CCN1CCN(Cc2ccc(Nc3ncc(F)c(-c4cc(F)c5nc(C)n(C(C)C)c5c4)n3)nc2)CC1 | 0 (no)
* COc1c(OCCCN2CCOCC2)ccc2c3n(c(=NC(=O)c4cnc(N)nc4)nc12)CCN3 + CC(C)NCC(C(=O)N1CCN(c2ncnc3c2C(C)CC3O)CC1)c1ccc(Cl)cc1 | 0 (no)
* Cn1ncnc1[C@H]1c2n[nH]c(=O)c3cc(F)cc(c23)N[C@@H]1c1ccc(F)cc1 + CC(C)NCC(C(=O)N1CCN(c2ncnc3c2C(C)CC3O)CC1)c1ccc(Cl)cc1 | 0 (no)

Next, consider the following compound.
Given the entry CC(C)n1nc(-c2ccc3oc(N)nc3c2)c2c(N)ncnc21 + CC(C)NCC(C(=O)N1CCN(c2ncnc3c2C(C)CC3O)CC1)c1ccc(Cl)cc1 , would its reported viability, T/C be below 60%? 1 (yes)

* * *

test system: MCF7 multi-cell spheroids with HUVEC/MSC, viability; assay: Anticancer human tumor MCF7 cell line growth inhibition [IpAb]; conditions: curve of first compound; second compound 10 µM;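 also: spheroids exposed to agents for seven days before readout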
pIC50: −log10 of the molar value.
ATTRIBUTE_MEASURED: pIC50

Below, 2 compounds whose answers are already recorded.
* CC(=O)c1c(C)c2cnc(Nc3ccc(N4CCNCC4)cn3)nc2n(C2CCCC2)c1=O + CC(C)NCC(C(=O)N1CCN(c2ncnc3c2C(C)CC3O)CC1)c1ccc(Cl)cc1 | > 9.02
* CCCS(=O)(=O)Nc1ccc(F)c(C(=O)c2c[nH]c3ncc(-c4ccc(Cl)cc4)cc23)c1F + CC(C)NCC(C(=O)N1CCN(c2ncnc3c2C(C)CC3O)CC1)c1ccc(Cl)cc1 | 7.50

Hi there! I need pIC50 for each item below, if you can.
1. Cn1cnc2c(F)c(Nc3ccc(Br)cc3Cl)c(C(=O)NOCCO)cc21 + CC(C)NCC(C(=O)N1CCN(c2ncnc3c2C(C)CC3O)CC1)c1ccc(Cl)cc1
2. Cn1ncc(Cl)c1-c1cc(C(=O)NC(CN)Cc2cccc(F)c2)sc1Cl (stereo not given) + CC(C)NCC(C(=O)N1CCN(c2ncnc3c2C(C)CC3O)CC1)c1ccc(Cl)cc1
3. C=CC(=O)N1CCN(c2nc(=O)n(-c3c(C)ccnc3C(C)C)c3nc(-c4c(O)cccc4F)c(F)cc23)C(C)C1 (stereo not given) + CC(C)NCC(C(=O)N1CCN(c2ncnc3c2C(C)CC3O)CC1)c1ccc(Cl)cc1

> 8.02
> 7.50
> 7.50

# map each compound to its pIC50
1. CC(C)(C)c1cnc(CSc2cnc(NC(=O)C3CCNCC3)s2)o1 + CC(C)NCC(C(=O)N1CCN(c2ncnc3c2C(C)CC3O)CC1)c1ccc(Cl)cc1
2. C=CCn1c(=O)c2cnc(Nc3ccc(N4CCN(C)CC4)cc3)nc2n1-c1cccc(C(C)(C)O)n1 + CC(C)NCC(C(=O)N1CCN(c2ncnc3c2C(C)CC3O)CC1)c1ccc(Cl)cc1
3. COc1c(OCCCN2CCOCC2)ccc2c3n(c(=NC(=O)c4cnc(N)nc4)nc12)CCN3 + CC(C)NCC(C(=O)N1CCN(c2ncnc3c2C(C)CC3O)CC1)c1ccc(Cl)cc1
4. CC1(C)CCC(CN2CCN(c3ccc(C(=O)NS(=O)(=O)c4ccc(NCC5CCOCC5)c([N+](=O)[O-])c4)c(Oc4cnc5[nH]ccc5c4)c3)CC2)=C(c2ccc(Cl)cc2)C1 + CC(C)NCC(C(=O)N1CCN(c2ncnc3c2C(C)CC3O)CC1)c1ccc(Cl)cc1
5. CC(C)n1nc(-c2ccc3oc(N)nc3c2)c2c(N)ncnc21 + CC(C)NCC(C(=O)N1CCN(c2ncnc3c2C(C)CC3O)CC1)c1ccc(Cl)cc1

1: 8.02; 2: > 7.50; 3: > 8.50; 4: > 7.50; 5: > 9.50

* * *

system: MCF7 multi-cell spheroids with HUVEC/MSC, viability; assay: Anticancer human tumor MCF7 cell line growth inhibition [IpAb]; conditions: second compound 0.0316 µM; first compound 3.16 µM; stronger effect = lower value;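 also: spheroids exposed to agents for seven days before readout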
Kindly state viability, T/C for each of the entries shown.
One number for each entry, in %.

* Cn1ncc(Cl)c1-c1cc(C(=O)NC(CN)Cc2cccc(F)c2)sc1Cl (configuration not stated) + CCN1CCN(Cc2ccc(Nc3ncc(F)c(-c4cc(F)c5nc(C)n(C(C)C)c5c4)n3)nc2)CC1 | 4.25
* C=CCn1c(=O)c2cnc(Nc3ccc(N4CCN(C)CC4)cc3)nc2n1-c1cccc(C(C)(C)O)n1 + CCN1CCN(Cc2ccc(Nc3ncc(F)c(-c4cc(F)c5nc(C)n(C(C)C)c5c4)n3)nc2)CC1 | 25.7
* Cc1nc(NC(=O)N2CCCC2C(N)=O)sc1-c1ccnc(C(C)(C)C(F)(F)F)c1 (configuration not stated) + CCN1CCN(Cc2ccc(Nc3ncc(F)c(-c4cc(F)c5nc(C)n(C(C)C)c5c4)n3)nc2)CC1 | 48.7
* CC1(C)CCC(CN2CCN(c3ccc(C(=O)NS(=O)(=O)c4ccc(NCC5CCOCC5)c([N+](=O)[O-])c4)c(Oc4cnc5[nH]ccc5c4)c3)CC2)=C(c2ccc(Cl)cc2)C1 + CCN1CCN(Cc2ccc(Nc3ncc(F)c(-c4cc(F)c5nc(C)n(C(C)C)c5c4)n3)nc2)CC1 | 104

Working through the 3 compounds below one at a time, give viability, T/C for each.
1. CCCS(=O)(=O)Nc1ccc(F)c(C(=O)c2c[nH]c3ncc(-c4ccc(Cl)cc4)cc23)c1F + CCN1CCN(Cc2ccc(Nc3ncc(F)c(-c4cc(F)c5nc(C)n(C(C)C)c5c4)n3)nc2)CC1
2. Cn1nccc1Nc1nccc(-c2ccn(C(CO)c3ccc(Cl)c(F)c3)c(=O)c2)n1 (configuration not stated) + CCN1CCN(Cc2ccc(Nc3ncc(F)c(-c4cc(F)c5nc(C)n(C(C)C)c5c4)n3)nc2)CC1
3. C=CC(=O)N1CCN(c2nc(=O)n(-c3c(C)ccnc3C(C)C)c3nc(-c4c(O)cccc4F)c(F)cc23)C(C)C1 (configuration not stated) + CCN1CCN(Cc2ccc(Nc3ncc(F)c(-c4cc(F)c5nc(C)n(C(C)C)c5c4)n3)nc2)CC1

85.3
138
76.9

* * *

tested on: MCF7 multi-cell spheroids with HUVEC/MSC, viability; test: Anticancer human tumor MCF7 cell line growth inhibition [IpAb]; settings: second compound 1 µM; first compound 0.00949 µM; stronger effect = lower value;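 also: spheroids exposed to agents for seven days before readout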
I'd be grateful if you could share measured viability, T/C for these entries.
One number for each entry, in %.

• CC(C)(C)c1cnc(CSc2cnc(NC(=O)C3CCNCC3)s2)o1 + CCN1CCN(Cc2ccc(Nc3ncc(F)c(-c4cc(F)c5nc(C)n(C(C)C)c5c4)n3)nc2)CC1 = 63
• CC(C)(C)c1cnc(CSc2cnc(NC(=O)C3CCNCC3)s2)o1 + CC(C)NCC(C(=O)N1CCN(c2ncnc3c2C(C)CC3O)CC1)c1ccc(Cl)cc1 = 76.5
• CC(=O)c1c(C)c2cnc(Nc3ccc(N4CCNCC4)cn3)nc2n(C2CCCC2)c1=O + CC(C)NCC(C(=O)N1CCN(c2ncnc3c2C(C)CC3O)CC1)c1ccc(Cl)cc1 = 63.1
• Cn1cnc2c(F)c(Nc3ccc(Br)cc3Cl)c(C(=O)NOCCO)cc21 + CCN1CCN(Cc2ccc(Nc3ncc(F)c(-c4cc(F)c5nc(C)n(C(C)C)c5c4)n3)nc2)CC1 = 107
• CC(=O)c1c(C)c2cnc(Nc3ccc(N4CCNCC4)cn3)nc2n(C2CCCC2)c1=O + CCN1CCN(Cc2ccc(Nc3ncc(F)c(-c4cc(F)c5nc(C)n(C(C)C)c5c4)n3)nc2)CC1 = 79.8

Attention now shifts to the item below.
Lab request: please report viability, T/C under test system MCF7 multi-cell spheroids with HUVEC/MSC, viability for Cn1cnc2c(F)c(Nc3ccc(Br)cc3Cl)c(C(=O)NOCCO)cc21 + CC(C)NCC(C(=O)N1CCN(c2ncnc3c2C(C)CC3O)CC1)c1ccc(Cl)cc1 58.7
